target_system: human Farnesoid X Receptor (FXR) ligand binding domain (GST-FXR LBD) (Homo sapiens)
Construct: purchased Invitrogen
Sequence (Q96RI1 193-472 isoform Q96RI1-2): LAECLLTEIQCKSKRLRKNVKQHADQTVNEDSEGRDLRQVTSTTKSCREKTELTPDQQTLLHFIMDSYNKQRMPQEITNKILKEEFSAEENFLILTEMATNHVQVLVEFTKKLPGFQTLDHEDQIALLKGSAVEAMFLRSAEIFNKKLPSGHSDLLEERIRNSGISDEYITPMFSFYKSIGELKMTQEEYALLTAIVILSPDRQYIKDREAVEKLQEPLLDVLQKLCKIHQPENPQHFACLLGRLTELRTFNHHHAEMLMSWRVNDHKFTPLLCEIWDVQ
assay_info: Human GST-FXR LBD co-activator interaction assay (HTRF)
Format: biochemical
condition_set: GST-FXR LBD / biotin-SRC-1 peptide FRET; response relative to GW4064; read-out: FXR Co-activator interaction assay (EC50)
From the text: Human GST-FXR LBD Co-activator interaction Assay. The FXR HTRF assay is a biochemical assay measuring the interaction between FXR and a coactivator protein (SRC1). […] The ligand-dependent interaction between GST-FXR LBD and a peptide derived from Steroid Receptor Coactivator-1 (SRC-1) was monitored by Fluorescence Resonance Energy Transfer (FRET). […] A negative control (without Streptavidin-XL665) was run with each assay and represented the background fluorescence. […]
Categories are assigned from the measured EC50 using these intervals: low group (below 0.004 µM), middle group (0.004 µM to below 0.03 µM), high group (0.03 µM or more)

Query block: The entry to classify is `O=C(O)c1ccc(N2[C@@H]3CC[C@H]2C[C@@H](OCc2c(-c4cccc(F)c4)noc2C2CC2)C3)nc1` ; which class holds it?
Result block: high group

Query block: The entry to classify is C[C@@H]1C(c2noc(C3CC3)c2COC2CC3CC[C@@H](C2)N3c2nc3c(F)cc(C(=O)O)cc3s2)C[C@@H]2C[C@H]1C2(C)C (stereo partly drawn) ; which class holds it?
Result block: middle group

Query block: The entry to classify is `O=C(O)c1ccc2nc(N3[C@@H]4CC[C@H]3C[C@@H](OCc3c(-c5ccc(F)cc5)noc3C3CC3)C4)sc2c1` ; which class holds it?
Result block: high group

Query block: The entry to classify is Cc1cc(C(=O)O)nc(N2C3CC[C@H]2CC(OCc2c(-c4c(F)cccc4Cl)noc2C2CC2)C3)n1 (stereo partly drawn) ; which class holds it?
Result block: middle group

Query block: The entry to classify is COC(=O)c1cc(F)c2nc(N3C4CC[C@H]3CC(OCc3c(-c5ccccc5C(F)(F)F)noc3C3CC3)C4)sc2c1 (stereo partly drawn) ; which class holds it?
Result block: middle group

Query block: The entry to classify is COC(=O)c1cc(C)c2nc(N3C4CC[C@H]3CC(OCc3c(-c5ccccc5C)noc3C3CC3)C4)sc2c1 (stereo partly drawn) ; which class holds it?
Result block: high group

Query block: The entry to classify is COC(=O)c1cc(F)c(N2C3CC[C@H]2CC(OCc2c(-c4ccccc4OC(F)F)noc2C2CC2)C3)c(F)c1 (stereo partly drawn) ; which class holds it?
Result block: middle group

Query block: The entry to classify is `O=C(NCCS(=O)(=O)O)c1ccc2nc(N3C4CC[C@H]3C[C@H](OCc3c(-c5ccccc5OC(F)(F)F)noc3C3CC3)C4)sc2c1` ; which class holds it?
Result block: low group

Query block: The entry to classify is O=C(O)c1ccc2nc(N3C4CC[C@H]3CC(OCc3c(-c5ccccc5OC(F)(F)F)noc3C3CC3)C4)ccc2c1 (stereo partly drawn) ; which class holds it?
Result block: low group

Query block: The entry to classify is O=C(O)c1cn2nc(N3C4CC[C@H]3CC(OCc3c(-c5ccccc5OC(F)(F)F)noc3C3CC3)C4)ccc2n1 (stereo in doubt) ; which class holds it?
Result block: middle group

Query block: The entry to classify is O=C(O)c1csc(N2C3CC[C@H]2CC(OCc2c(-c4ccccc4OC(F)(F)F)noc2C2CC2)C3)n1 (stereo partly drawn) ; which class holds it?
Result block: low group

Query block: The entry to classify is COc1cc(C(=O)O)cc2sc(N3C4CC[C@H]3CC(OCc3c(-c5ccccc5C)noc3C3CC3)C4)nc12 (stereo partly drawn) ; which class holds it?
Result block: low group

Query block: The entry to classify is `CCOC(=O)c1ccc2nc(N3C4CC[C@H]3C[C@H](OCc3c(-c5c(F)cccc5F)noc3C3CC3)C4)sc2c1` ; which class holds it?
Result block: low group

Query block: The entry to classify is O=C(O)c1ccc(N2C3CC[C@H]2CC(OCc2c(-c4c(Cl)cccc4Cl)noc2C2CC2)C3)nc1 (stereo partly drawn) ; which class holds it?
Result block: low group

Query block: The entry to classify is O=C(O)c1cc(Br)c2nc(N3C4CC[C@H]3CC(OCc3c(-c5ccccc5OC(F)(F)F)noc3C3CC3)C4)sc2c1 (stereo partly drawn) ; which class holds it?
Result block: low group

Query block: The entry to classify is O=C(O)c1cnc(N2C3CC[C@H]2CC(OCc2c(-c4c(F)cccc4F)noc2C2CC2)C3)nc1 (stereo partly drawn) [Example 22-14B] ; which class holds it?
Result block: middle group

Query block: The entry to classify is `O=C(O)c1cc(F)c2nc(N3[C@@H]4CC[C@H]3C[C@@H](OCc3c(-c5ccccc5C5CC5)noc3C3CC3)C4)sc2c1` ; which class holds it?
Result block: low group

Query block: The entry to classify is `CC1(C)CCC(c2noc(C3CC3)c2CO[C@@H]2CC3CC[C@@H](C2)N3c2nc3c(F)cc(C(=O)O)cc3s2)CC1` ; which class holds it?
Result block: middle group

Query block: The entry to classify is COC(=O)c1cnc(N2C3CC[C@H]2CC(OCc2c(-c4ccccc4OC(F)F)noc2C2CC2)C3)nc1 (stereo partly drawn) [Example 22-10A] ; which class holds it?
Result block: high group

Query block: The entry to classify is COc1cc(C(=O)O)cc2sc(N3C4CC[C@H]3CC(OCc3c(-c5ccc(F)cc5)noc3C3CC3)C4)nc12 (stereo partly drawn) ; which class holds it?
Result block: middle group

Query block: The entry to classify is Cc1nc(N2C3CC[C@H]2CC(OCc2c(-c4ccccc4OC(F)(F)F)noc2C2CC2)C3)ccc1C(=O)O (stereo partly drawn) ; which class holds it?
Result block: middle group

Query block: The entry to classify is COC(=O)c1cnc(N2C3CC[C@H]2CC(OCc2c(-c4c(F)cccc4F)noc2C2CC2)C3)cn1 (stereo partly drawn) [Example 22-15A] ; which class holds it?
Result block: high group

Query block: The entry to classify is O=C(O)c1cnc(N2C3CC[C@H]2CC(OCc2c(-c4c(F)cccc4F)noc2C2CC2)C3)cc1C(F)(F)F (stereo partly drawn) [Example 22-16B] ; which class holds it?
Result block: middle group

Query block: The entry to classify is Cc1cc(C(=O)O)cnc1N1C2CC[C@H]1CC(OCc1c(-c3ccccc3OC(F)F)noc1C1CC1)C2 (stereo partly drawn) ; which class holds it?
Result block: middle group

Query block: The entry to classify is COc1cc(C(=O)O)cc2sc(N3C4CC[C@H]3C[C@H](OCc3c(C5CCCCC5C(F)(F)F)noc3C3CC3)C4)nc12 (stereo partly drawn) ; which class holds it?
Result block: low group

Query block: The entry to classify is `COC(=O)c1ccnc(N2C3CC[C@H]2C[C@H](OCc2c(-c4ccccc4OC(F)(F)F)noc2C2CC2)C3)n1` ; which class holds it?
Result block: high group

Query block: The entry to classify is COC(=O)c1cc(N2C3CC[C@H]2CC(OCc2c(-c4c(F)cccc4F)noc2C2CC2)C3)nc(Cl)n1 (stereo partly drawn) ; which class holds it?
Result block: high group

---

target_system: human Farnesoid X Receptor (FXR) ligand binding domain (GST-FXR LBD) (Homo sapiens)
Construct: purchased Invitrogen
assay_info: Human GST-FXR LBD co-activator interaction assay (HTRF)
Assay type: biochemical
condition_set: GST-FXR LBD / biotin-SRC-1 peptide FRET; response relative to GW4064; read-out: FXR Co-activator interaction assay (EC50)
reported_endpoint: pEC50
# log scale: pEC50 equals minus log10 of the concentration in mol/L

Query block: Look up and state reported pEC50 for COC(=O)c1cc(C)c2nc(N3C4CC[C@H]3CC(OCc3c(-c5ccccc5OC(F)(F)F)noc3C3CC3)C4)sc2c1 (stereo partly drawn) [Example 30-28]
Result block: 7.92

Query block: Look up and state reported pEC50 for Cc1nc(N2[C@@H]3CC[C@H]2C[C@@H](OCc2c(-c4cccc(F)c4)noc2C2CC2)C3)ccc1C(=O)O [Example 30-50]
Result block: 6.15

Query block: Look up and state reported pEC50 for O=C(O)c1ccc(N2C3CC[C@H]2CC(OCc2c(-c4ccccc4OC(F)F)noc2C2CC2)C3)nn1 (stereo partly drawn) [Example 22-9B]
Result block: 7.77

Query block: Look up and state reported pEC50 for O=C(O)c1cn2nc(N3C4CC[C@H]3CC(OCc3c(-c5ccccc5C(F)(F)F)noc3C3CC3)C4)ccc2n1 (stereo partly drawn) [Example 31-2]
Result block: 7.89

Query block: Look up and state reported pEC50 for O=C(O)c1ccc2nc(N3C4CC[C@H]3C[C@H](OCc3c(C5CCCCC5C(F)(F)F)noc3C3CC3)C4)sc2c1 (stereo in doubt) [Example 7B]
Result block: 7.80

Query block: Look up and state reported pEC50 for O=C(O)c1cnc2cc(N3C4CC[C@H]3CC(OCc3c(-c5ccccc5OC(F)(F)F)noc3C3CC3)C4)ccc2c1 (stereo partly drawn) [Example 28-3]
Result block: 9.10

Query block: Look up and state reported pEC50 for O=C(O)c1cnc2c(N3C4CC[C@H]3CC(OCc3c(-c5ccccc5OC(F)(F)F)noc3C3CC3)C4)cccc2c1 (stereo partly drawn) [Example 28-17]
Result block: 8.01

Query block: Look up and state reported pEC50 for COC(=O)Cc1ccc(N2C3CC[C@H]2C[C@H](OCc2c(-c4ccccc4OC(F)(F)F)noc2C2CC2)C3)nc1 [Example 19-1A]
Result block: 6.74

Query block: Look up and state reported pEC50 for O=C(O)c1cc(C2CC2)nc(N2C3CC[C@H]2CC(OCc2c(-c4ccccc4OC(F)F)noc2C2CC2)C3)n1 (stereo partly drawn) [Example 30-41]
Result block: 8.40

Query block: Look up and state reported pEC50 for O=C(O)c1cc(F)c2nc(N3C4CC[C@H]3C[C@H](OCc3c(C5CC5)noc3C3CC3)C4)sc2c1 [Example 12-2]
Result block: 7.40

Query block: Look up and state reported pEC50 for Cc1cc(C(=O)O)cc2sc(N3C4CC[C@H]3CC(OCc3c(-c5c(F)cccc5F)noc3C3CC3)C4)nc12 (stereo partly drawn) [Example 30-33]
Result block: 9.15

Query block: Look up and state reported pEC50 for COc1cc(C(=O)O)cc2sc(N3C4CC[C@H]3CC(OCc3c(-c5c(C)cccc5F)noc3C3CC3)C4)nc12 (stereo partly drawn) [Example 30-11]
Result block: 9.52

Query block: Look up and state reported pEC50 for COC(=O)c1cc(F)c2nc(N3C4CC[C@H]3C[C@H](OCc3c(-c5ccccc5OC(F)F)noc3C3CC3)C4)sc2c1 [Example 6-3A]
Result block: 7.92

Query block: Look up and state reported pEC50 for O=C(O)c1ccc(N2C3CC[C@H]2CC(OCc2c(-c4ccccc4OC(F)(F)F)noc2C2CC2)C3)c(F)c1 (stereo in doubt) [Example 23B]
Result block: 8.40

Query block: Look up and state reported pEC50 for O=C(O)c1cncc(N2C3CC[C@H]2C[C@H](OCc2c(-c4ccccc4OC(F)(F)F)noc2C2CC2)C3)n1 [Example 19-5B]
Result block: 8.05

Query block: Look up and state reported pEC50 for COC(=O)c1cc(OC)c2nc(N3C4CC[C@H]3C[C@H](OCc3c(-c5c(F)cccc5F)noc3C3CC3)C4)sc2c1 [Example 6-6A]
Result block: 7.85

Query block: Look up and state reported pEC50 for COC(=O)c1cnc(N2C3CC[C@H]2CC(OCc2c(-c4ccccc4OC(F)F)noc2C2CC2)C3)c(C)c1 (stereo partly drawn) [Example 22-7A]
Result block: 8.00

Query block: Look up and state reported pEC50 for COC(=O)c1cncc(N2C3CC[C@H]2C[C@H](OCc2c(-c4ccccc4OC(F)(F)F)noc2C2CC2)C3)n1 [Example 19-5A]
Result block: 6.70

Query block: Look up and state reported pEC50 for O=C(O)c1cnc(N2C3CC[C@H]2C[C@H](OCc2c(-c4ccccc4OC(F)(F)F)noc2C2CC2)C3)c(C2CC2)c1 [Example 18-2B]
Result block: 8.15

Query block: Look up and state reported pEC50 for O=C(O)c1ccc(N2[C@@H]3CC[C@H]2C[C@@H](OCc2c(-c4ccccc4F)noc2C2CC2)C3)nc1 [Example 30-69]
Result block: 7.68

Query block: Look up and state reported pEC50 for O=C(O)c1cc(F)c2nc(N3C4CC[C@H]3CC(OCc3c(C5C6CCCC65)noc3C3CC3)C4)sc2c1 (stereo partly drawn) [Example 29-1]
Result block: 7.85

Query block: Look up and state reported pEC50 for O=C(O)c1cc(F)c2nc(N3C4CC[C@H]3C[C@H](OCc3c(C5CCCCC5)noc3C3CC3)C4)sc2c1 [Example 9-1]
Result block: 8.30

Query block: Look up and state reported pEC50 for Cc1cc(C(=O)O)nc(N2C3CC[C@H]2CC(OCc2c(-c4c(C)cccc4C)noc2C2CC2)C3)n1 (stereo partly drawn) [Example 30-16]
Result block: 7.62

Query block: Look up and state reported pEC50 for Cc1nc(N2C3CC[C@H]2CC(OCc2c(-c4ccccc4C(F)(F)F)noc2C2CC2)C3)ccc1C(=O)O (stereo partly drawn) [Example 30-45]
Result block: 7.74

Query block: Look up and state reported pEC50 for COC(=O)c1cnc(N2C3CC[C@H]2CC(OCc2c(-c4c(F)cccc4F)noc2C2CC2)C3)c(Br)c1 (stereo partly drawn) [Example 22-21]
Result block: 7.54

Query block: Look up and state reported pEC50 for COC(=O)c1ccc(N2C3CC[C@H]2CC(OCc2c(-c4ccccc4OC(F)(F)F)noc2C2CC2)C3)c(F)c1 (stereo in doubt) [Example 23A]
Result block: 8.22

Query block: Look up and state reported pEC50 for O=C(O)c1ccc2nc(N3C4CC[C@H]3C[C@H](OCc3c(-c5ccccc5OC(F)F)noc3C3CC3)C4)sc2c1 [Example 6-2B]
Result block: 9.44
